relative viability listing for selected compounds.
Test system: RD-ES
Assay: relative viability vs DMSO control (72 h) (fraction); higher = more viable cells
Conditions: 0.00051 µM
Observable: relative viability

- Smiles Repr: "Cn1ncnc1[C@H]1c2n[nH]c(=O)c3cc(F)cc(c23)N[C@@H]1c1ccc(F)cc1"
  Observable: "relative viability"
  Recorded Measurement: 0.95
- Smiles Repr: "C[C@H](Nc1ncnc2nc[nH]c12)c1cc2cccc(Cl)c2c(=O)n1-c1ccccc1"
  Observable: "relative viability"
  Recorded Measurement: 1.01
- Smiles Repr: "N#CC1(c2ccc(NC(=O)c3cccnc3NCc3ccncc3)cc2)CCCC1"
  Observable: "relative viability"
  Recorded Measurement: 0.968
- Smiles Repr: "COc1cc(Nc2ncc(F)c(Nc3ccc4c(n3)N(COP(=O)(O)O)C(=O)C(C)(C)O4)n2)cc(OC)c1OC"
  Observable: "relative viability"
  Recorded Measurement: 0.964

###

Test system: SW684
Test: relative viability vs DMSO control (72 h) (fraction); higher = more viable cells
Settings: 0.01372 µM
Assign labels as follows, please: True for relative viability below 1; False for relative viability equal to or exceeding 1.

- Molecule: "Cc1cc2cc(Oc3ccnc(Nc4cccc(CS(=O)(=O)NCCN(C)C)c4)n3)ccc2[nH]1"
  Qualitative Label: "False"
- Molecule: "C[C@H](Nc1ncnc2nc[nH]c12)c1cc2cccc(Cl)c2c(=O)n1-c1ccccc1"
  Qualitative Label: "True"
- Molecule: "Clc1ccc(Nc2nnc(Cc3ccncc3)c3ccccc23)cc1"
  Qualitative Label: "False"
- Molecule: "COC(=O)N[C@@H](C)CNc1nccc(-c2cn(C(C)C)nc2-c2cc(Cl)cc(NS(C)(=O)=O)c2F)n1"
  Qualitative Label: "False"
- Molecule: "COC(=O)[C@@]1(O)C[C@H]2O[C@]1(C)n1c3ccccc3c3c4c(c5c6ccccc6n2c5c31)C(=O)NC4 [K-252a]"
  Qualitative Label: "False"
- Molecule: "O=S(=O)(c1cccc2cnccc12)N1CCCNCC1"
  Qualitative Label: "True"
- Molecule: "CC(C)NC[C@@H](C(=O)N1CCN(c2ncnc3c2[C@H](C)C[C@H]3O)CC1)c1ccc(Cl)cc1"
  Qualitative Label: "False"
- Molecule: "CN1CC[C@@H](NC(=O)Nc2ccc(C#N)cc2)C[C@@H]1c1nc2ccccc2[nH]1"
  Qualitative Label: "False"

###

Tested on: MES-SA
Test: relative viability vs DMSO control (72 h) (fraction); higher = more viable cells
Conditions: 0.04115 µM
Catalogue of compounds with associated relative viability

- Compound: "CC1(C)CC=C(c2nc(C3CC(C)(C)OC(C)(C)C3)ccc2NC(=O)c2nc(C#N)c[nH]2)CC1 [Edicotinib]"
  Target System: "MES-SA"
  relative viability: 0.93
- Compound: "O=C(Nc1nc2cccc(-c3ccc(CN4CCS(=O)(=O)CC4)cc3)n2n1)C1CC1 [Filgotinib]"
  Target System: "MES-SA"
  relative viability: 0.953
- Compound: "CC(C)(O)CNc1nc(Nc2ccnc(C(F)(F)F)c2)nc(-c2cccc(C(F)(F)F)n2)n1 [Enasidenib]"
  Target System: "MES-SA"
  relative viability: 0.932
- Compound: "COCCNc1cc(NC(=O)N2CCCc3cc(CN4CCN(C)CC4=O)c(C=O)nc32)ncc1C#N [Roblitinib]"
  Target System: "MES-SA"
  relative viability: 0.884
- Compound: "Cc1ccc(Nc2nccc(N(C)c3ccc4c(C)n(C)nc4c3)n2)cc1S(N)(=O)=O [Pazopanib]"
  Target System: "MES-SA"
  relative viability: 0.928
- Compound: "Cc1cccc(-c2nn3c(c2-c2ccnc4ccc(C(N)=O)cc24)CCC3)n1 [Galunisertib]"
  Target System: "MES-SA"
  relative viability: 0.91
- Compound: "O=S(=O)(c1cccc2cnccc12)N1CCCNCC1 [Fasudil]"
  Target System: "MES-SA"
  relative viability: 0.992
- Compound: "COc1cc(OC)c(/C=C/S(=O)(=O)Cc2ccc(OC)c(NCC(=O)O)c2)c(OC)c1 [Rigosertib]"
  Target System: "MES-SA"
  relative viability: 0.932
- Compound: "CCN1C(=O)N(c2c(F)c(OC)cc(OC)c2F)Cc2cnc3[nH]c(CN4CCOCC4)cc3c21 [Pemigatinib]"
  Target System: "MES-SA"
  relative viability: 0.826
- Compound: "CC(C)Oc1ccc(-c2nn([C@@H](C)c3oc4ccc(F)cc4c(=O)c3-c3cccc(F)c3)c3ncnc(N)c23)cc1F [Umbralisib]"
  Target System: "MES-SA"
  relative viability: 0.944
- Compound: "CC1(COc2ccc3c(c2)ncn3-c2ccc3cccc(N4CCC(N)CC4)c3n2)COC1 [Crenolanib]"
  Target System: "MES-SA"
  relative viability: 0.94
- Compound: "O=C(Nc1ccc(OC(F)(F)Cl)cc1)c1cnc(N2CC[C@@H](O)C2)c(-c2cc[nH]n2)c1 [Asciminib]"
  Target System: "MES-SA"
  relative viability: 0.923

###

Tested on: KHOS-240S
Test: relative viability vs DMSO control (72 h) (fraction); higher = more viable cells
Details: 0.00152 µM

- Compound: "CNC(=O)c1nnc(NC(=O)C2CC2)cc1Nc1cccc(-c2ncn(C)n2)c1OC"
  relative viability: 1.06
- Compound: "CC(C)(O)CNc1nc(Nc2ccnc(C(F)(F)F)c2)nc(-c2cccc(C(F)(F)F)n2)n1"
  relative viability: 1.05
- Compound: "COc1cc(CCc2cc(NC(=O)c3ccc(N4CC(C)NC(C)C4)cc3)n[nH]2)cc(OC)c1 (stereo not given)"
  relative viability: 1.04
- Compound: "CC1(COc2ccc3c(c2)ncn3-c2ccc3cccc(N4CCC(N)CC4)c3n2)COC1"
  relative viability: 1.01
- Compound: "N#CC1(c2ccc(NC(=O)c3cccnc3NCc3ccncc3)cc2)CCCC1"
  relative viability: 1.05

###

Test system: VA-ES-BJ
Assay: relative viability vs DMSO control (72 h) (fraction); higher = more viable cells
Settings: 0.01372 µM
Observable: relative viability

- Compound: "O=C(Nc1ccc(OC(F)(F)Cl)cc1)c1cnc(N2CC[C@@H](O)C2)c(-c2cc[nH]n2)c1"
  Observable: "relative viability"
  Recorded Measurement: 0.999
- Compound: "CC1(C)CC=C(c2nc(C3CC(C)(C)OC(C)(C)C3)ccc2NC(=O)c2nc(C#N)c[nH]2)CC1"
  Observable: "relative viability"
  Recorded Measurement: 1.03
- Compound: "O=C1NC(=O)[C@@H](c2cn3c4c(cccc24)CCC3)[C@@H]1c1c[nH]c2ccccc12 [Tivantinib]"
  Observable: "relative viability"
  Recorded Measurement: 1.01
- Compound: "O=c1sn(-c2cccc3ccccc23)c(=O)n1Cc1ccccc1"
  Observable: "relative viability"
  Recorded Measurement: 1.08
- Compound: "CCN1C(=O)N(c2c(F)c(OC)cc(OC)c2F)Cc2cnc3[nH]c(CN4CCOCC4)cc3c21"
  Observable: "relative viability"
  Recorded Measurement: 1.04
- Compound: "COc1cc(CCc2cc(NC(=O)c3ccc(N4CC(C)NC(C)C4)cc3)n[nH]2)cc(OC)c1 (stereo not drawn)"
  Observable: "relative viability"
  Recorded Measurement: 1.01
- Compound: "C[C@H](Nc1ncnc2nc[nH]c12)c1cc2cccc(Cl)c2c(=O)n1-c1ccccc1"
  Observable: "relative viability"
  Recorded Measurement: 1.08
- Compound: "COc1cc(Nc2ncc(F)c(Nc3ccc4c(n3)N(COP(=O)(O)O)C(=O)C(C)(C)O4)n2)cc(OC)c1OC"
  Observable: "relative viability"
  Recorded Measurement: 1.04

###

Test system: SW982
Assay: relative viability vs DMSO control (72 h) (fraction); higher = more viable cells
Conditions: 0.3704 µM
Observable: relative viability

- Smiles Repr: "Cc1cccc(-c2nn3c(c2-c2ccnc4ccc(C(N)=O)cc24)CCC3)n1"
  Recorded Measurement: 0.977
- Smiles Repr: "CNC(=O)c1nnc(NC(=O)C2CC2)cc1Nc1cccc(-c2ncn(C)n2)c1OC"
  Recorded Measurement: 1.07
- Smiles Repr: "CC(C)(C)c1nc(-c2cccc(NS(=O)(=O)c3c(F)cccc3F)c2F)c(-c2ccnc(N)n2)s1"
  Recorded Measurement: 0.469
- Smiles Repr: "CO[C@H]1C[C@@H]2CC[C@@H](C)[C@@](O)(O2)C(=O)C(=O)N2CCCC[C@H]2C(=O)O[C@H]([C@H](C)C[C@@H]2CC[C@@H](OCCO)[C@H](OC)C2)CC(=O)[C@H](C)/C=C(\\C)[C@@H](O)[C@@H](OC)C(=O)[C@H](C)C[C@H](C)/C=C/C=C/C=C/1C"
  Recorded Measurement: 0.645

###

# relative viability per record follows
Test system: VA-ES-BJ
Test: relative viability vs DMSO control (72 h) (fraction); higher = more viable cells
Details: 0.01372 µM
Observable: relative viability

- Molecule: "CC[C@@H]1CN(C(=O)NCC(F)(F)F)C[C@@H]1c1cnc2cnc3[nH]ccc3n12"
  Observable: "relative viability"
  Recorded Measurement: 1.05
- Molecule: "CC#CC(=O)N1CCC[C@H]1c1nc(-c2ccc(C(=O)Nc3ccccn3)cc2)c2c(N)nccn12"
  Observable: "relative viability"
  Recorded Measurement: 1.01
- Molecule: "COC(=O)[C@@]1(O)C[C@H]2O[C@]1(C)n1c3ccccc3c3c4c(c5c6ccccc6n2c5c31)C(=O)NC4 [K-252a]"
  Observable: "relative viability"
  Recorded Measurement: 1.05
- Molecule: "N#CC1(c2ccc(NC(=O)c3cccnc3NCc3ccncc3)cc2)CCCC1"
  Observable: "relative viability"
  Recorded Measurement: 1.06
